# Test system: 945468-187-T-J2-PDC spheroids viability;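 further: spheroids exposed to compounds for seven days before reading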
# PROCEDURE_DETAILS: Anticancer human tumor 945468-187-T-J2-PDC patient-derived rectal carcinoma cell line growth inhibition [PI3K]
# STUDY_CONDITIONS: second compound 0.0316 µM; first compound 1 µM; active compounds read low; spheroids with HUVEC and MSC
READOUT: viability, T/C

Some solved entries appear below for comparison.
COMPOUND	viability, T/C
C#Cc1c(F)ccc2cc(O)cc(-c3ncc4c(N5CC6CCC(C5)N6)nc(OCC56CCCN5CC(F)C6)nc4c3F)c12 (stereo unspecified) + CC(Nc1ncnc2nc[nH]c12)c1cc2cccc(Cl)c2c(=O)n1-c1ccccc1	86.4%
C=CC(=O)N1CCN(c2nc(=O)n(-c3c(C)ccnc3C(C)C)c3nc(-c4c(O)cccc4F)c(F)cc23)C(C)C1 (stereo unspecified) + CC(Nc1ncnc2nc[nH]c12)c1cc2cccc(Cl)c2c(=O)n1-c1ccccc1	114%
Cn1nccc1Nc1nccc(-c2ccn(C(CO)c3ccc(Cl)c(F)c3)c(=O)c2)n1 (stereo unspecified) + COc1c(OCCCN2CCOCC2)ccc2c3n(c(=NC(=O)c4cnc(N)nc4)nc12)CCN3	89.1%
CC1(C)CCC(Nc2ncc(C(F)(F)F)c(-c3c[nH]c4c(P(C)(C)=O)c(C#N)ccc34)n2)CN1 (stereo unspecified) + CC(Nc1ccc2c(c1)OCCn1cc(N3C(=O)OCC3C(F)F)nc1-2)C(N)=O	64.3%
C[C@@H](NC(=O)c1ncnc(N)c1Cl)c1ncc(C(=O)Nc2cc(C(F)(F)F)c(Cl)cn2)s1 + COc1c(OCCCN2CCOCC2)ccc2c3n(c(=NC(=O)c4cnc(N)nc4)nc12)CCN3	142%
CCN1CCN(Cc2ccc(Nc3ncc(F)c(-c4cc(F)c5nc(C)n(C(C)C)c5c4)n3)nc2)CC1 + CC(Nc1ccc2c(c1)OCCn1cc(N3C(=O)OCC3C(F)F)nc1-2)C(N)=O	74.7%
CNC(=O)c1ccc(N2C(=S)N(c3ccc(C#N)c(C(F)(F)F)c3)C(=O)C2(C)C)cc1F + COc1c(OCCCN2CCOCC2)ccc2c3n(c(=NC(=O)c4cnc(N)nc4)nc12)CCN3	111%
Cn1nccc1Nc1nccc(-c2ccn(C(CO)c3ccc(Cl)c(F)c3)c(=O)c2)n1 (stereo unspecified) + CC(Nc1ccc2c(c1)OCCn1cc(N3C(=O)OCC3C(F)F)nc1-2)C(N)=O	80%

Prompt: Fill in reported viability, T/C for this entry: CC(C)NCC(C(=O)N1CCN(c2ncnc3c2C(C)CC3O)CC1)c1ccc(Cl)cc1 (stereo unspecified) + CC(Nc1ncnc2nc[nH]c12)c1cc2cccc(Cl)c2c(=O)n1-c1ccccc1
Response: 74.2%

Prompt: Fill in reported viability, T/C for this entry: CC1(C)CCC(CN2CCN(c3ccc(C(=O)NS(=O)(=O)c4ccc(NCC5CCOCC5)c([N+](=O)[O-])c4)c(Oc4cnc5[nH]ccc5c4)c3)CC2)=C(c2ccc(Cl)cc2)C1 + COc1c(OCCCN2CCOCC2)ccc2c3n(c(=NC(=O)c4cnc(N)nc4)nc12)CCN3
Response: 115%

Prompt: Fill in reported viability, T/C for this entry: Cn1nccc1Nc1nccc(-c2ccn(C(CO)c3ccc(Cl)c(F)c3)c(=O)c2)n1 (stereo unspecified) + CC(Nc1ncnc2nc[nH]c12)c1cc2cccc(Cl)c2c(=O)n1-c1ccccc1
Response: 115%
